Biological target: TLR8 (Homo sapiens)
Construct: PBMCs were isolated from unpurified buffy coat from healthy human donors
Sequence (Q9NR97 27-1041): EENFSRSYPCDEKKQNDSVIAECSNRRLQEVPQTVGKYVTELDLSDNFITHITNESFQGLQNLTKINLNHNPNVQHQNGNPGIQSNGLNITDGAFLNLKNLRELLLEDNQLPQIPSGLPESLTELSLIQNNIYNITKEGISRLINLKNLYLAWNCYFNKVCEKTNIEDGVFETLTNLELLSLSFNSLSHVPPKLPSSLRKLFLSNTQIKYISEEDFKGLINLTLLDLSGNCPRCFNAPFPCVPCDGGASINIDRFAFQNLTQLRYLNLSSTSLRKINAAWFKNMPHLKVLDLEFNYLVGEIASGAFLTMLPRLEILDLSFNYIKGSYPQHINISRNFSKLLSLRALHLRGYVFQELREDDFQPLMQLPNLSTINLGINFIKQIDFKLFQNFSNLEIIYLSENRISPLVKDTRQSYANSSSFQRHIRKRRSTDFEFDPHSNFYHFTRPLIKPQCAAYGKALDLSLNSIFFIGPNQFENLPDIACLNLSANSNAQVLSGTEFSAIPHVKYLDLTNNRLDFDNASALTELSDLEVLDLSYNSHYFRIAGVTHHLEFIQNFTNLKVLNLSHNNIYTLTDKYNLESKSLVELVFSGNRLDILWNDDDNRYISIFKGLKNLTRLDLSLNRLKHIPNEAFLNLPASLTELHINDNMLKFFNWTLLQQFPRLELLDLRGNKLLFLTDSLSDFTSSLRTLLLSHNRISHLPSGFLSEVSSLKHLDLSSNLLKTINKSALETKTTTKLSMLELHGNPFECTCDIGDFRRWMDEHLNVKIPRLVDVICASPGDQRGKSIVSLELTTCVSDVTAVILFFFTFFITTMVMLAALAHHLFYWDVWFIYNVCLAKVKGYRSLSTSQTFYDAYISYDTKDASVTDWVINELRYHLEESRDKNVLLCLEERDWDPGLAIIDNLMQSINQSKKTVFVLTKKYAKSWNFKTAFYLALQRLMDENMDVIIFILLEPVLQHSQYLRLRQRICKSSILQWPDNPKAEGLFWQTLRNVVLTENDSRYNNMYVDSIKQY
Assay: TLR8 antagonist assay in human PBMCs (ORN1075, TNFα ELISA)
Conditions: human PBMC, 0.5 μM ORN1075, TNFα readout
OBSERVED_PROPERTY: IC50 (nM)
Response body: numeric value in nM, unit text excluded.

COMPOUND_STRING	OUTPUT_UNIT	MEASUREMENT
CN1CCN(c2nc(NCCN3CCOCC3)c3nc(Cl)c(NCCN4CCOCC4)nc3n2)CC1	nM	514
CN1CCN(c2nc3nc(-c4ccccc4)nc(NCCN4CCOCC4)c3nc2OCCN2CCOCC2)CC1	nM	658
CCOc1nc2c(NCCN3CCCC3)nc(-c3ccccc3)nc2nc1N1CCN(C)CC1	nM	78
CCOc1nc2c(NCCN3CCOCC3)nc(NCc3ccccc3)nc2nc1NCCN1CCOCC1	nM	151

Next:
Query CN1CCN(c2nc(NCCN3CCOCC3)c3ncc(-c4ccccc4)nc3n2)CC1 yields IC50 of 273

----------
Catalogue of compounds with associated log10 IC50
Target: TLR7 (Homo sapiens, UniProt Q9NYK1)
Sequence (Q9NYK1 27-1049): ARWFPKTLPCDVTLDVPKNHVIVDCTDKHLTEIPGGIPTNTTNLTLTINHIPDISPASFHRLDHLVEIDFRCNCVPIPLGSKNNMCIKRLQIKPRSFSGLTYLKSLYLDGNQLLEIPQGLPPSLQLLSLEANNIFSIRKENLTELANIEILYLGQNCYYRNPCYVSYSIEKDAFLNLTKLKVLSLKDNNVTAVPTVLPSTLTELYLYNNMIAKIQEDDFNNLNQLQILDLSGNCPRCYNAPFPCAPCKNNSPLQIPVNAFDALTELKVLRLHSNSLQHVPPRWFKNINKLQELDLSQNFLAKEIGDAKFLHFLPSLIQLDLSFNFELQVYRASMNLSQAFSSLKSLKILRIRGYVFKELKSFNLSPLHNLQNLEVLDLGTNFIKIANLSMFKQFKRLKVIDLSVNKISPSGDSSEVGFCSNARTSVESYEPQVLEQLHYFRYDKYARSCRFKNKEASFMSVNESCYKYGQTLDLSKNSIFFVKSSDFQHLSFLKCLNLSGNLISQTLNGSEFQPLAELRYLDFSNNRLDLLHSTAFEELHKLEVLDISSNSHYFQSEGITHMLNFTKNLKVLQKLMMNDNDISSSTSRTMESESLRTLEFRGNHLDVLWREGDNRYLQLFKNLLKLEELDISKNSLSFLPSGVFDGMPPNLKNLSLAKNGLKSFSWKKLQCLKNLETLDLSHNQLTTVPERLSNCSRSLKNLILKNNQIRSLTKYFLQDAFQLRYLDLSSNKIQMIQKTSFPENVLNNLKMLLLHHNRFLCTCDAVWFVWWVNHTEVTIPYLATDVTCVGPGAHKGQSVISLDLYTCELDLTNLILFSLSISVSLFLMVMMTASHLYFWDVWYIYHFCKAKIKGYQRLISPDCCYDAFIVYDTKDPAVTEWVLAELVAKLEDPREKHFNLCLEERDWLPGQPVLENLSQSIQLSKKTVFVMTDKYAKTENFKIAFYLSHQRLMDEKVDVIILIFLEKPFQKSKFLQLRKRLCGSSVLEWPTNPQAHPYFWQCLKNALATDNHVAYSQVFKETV
Experiment: TLR7 antagonist assay in human PBMCs (ORN1075, IFNα ELISA)
Conditions: human PBMC, 0.5 μM ORN1075, IFNα readout
Protocol: PBMCs were isolated from unpurified buffy coat from healthy human donors (Blood Research Components, LLC). For antagonist testing, cells were plated on 96-well U-bottom plates at 3×10^6 cells/ml. […] TLR activity was measured in PBMCs and neutrophils by ELISA using cytokine readouts specific for the TLR of interest. IFNα was measured as a readout for TLR7 and TLR9 activity in PBMCs stimulated with either ORN1075, or ODN2395, respectively, using a Human Pan-IFNα ELISA kit (MABTech, cat.#3425-1H-20). […]
On a log10 scale: recorded IC50, unit nM.

COMPOUND_STRING	TARGET_OF_ASSAY	log10 IC50
CN1CCN(c2nc(NCCN3CCOCC3)c3ncc(-c4ccccc4)nc3n2)CC1	TLR7 (Homo sapiens, UniProt Q9NYK1)	2.16
CCCCNc1nc(NCCN2CCOCC2)c2nc(SCC)c(NCCN3CCOCC3)nc2n1	TLR7 (Homo sapiens, UniProt Q9NYK1)	1.87
CCOc1nc2c(NCCN3CCOCC3)nc(NCc3ccccc3)nc2nc1NCCN1CCOCC1	TLR7 (Homo sapiens, UniProt Q9NYK1)	2.70
CN1CCN(c2nc3nc(-c4ccccc4)nc(NCCN4CCOCC4)c3nc2OCCN2CCOCC2)CC1	TLR7 (Homo sapiens, UniProt Q9NYK1)	1.91
CCCCNc1nc(NCCN2CCOCC2)c2nc(Cl)c(NCCN3CCOCC3)nc2n1	TLR7 (Homo sapiens, UniProt Q9NYK1)	2.38
Clc1nc2c(NCCN3CCOCC3)nc(N3CCOCC3)nc2nc1NCCN1CCOCC1	TLR7 (Homo sapiens, UniProt Q9NYK1)	2.35

Query CN1CCN(c2nc(NCCN3CCOCC3)c3nc(Cl)c(NCCN4CCOCC4)nc3n2)CC1 yields log10 IC50 of 1.40

Query C[C@@H]1CN(CCNc2nc3nc(N4CCN(C)CC4)nc(NCCN4C[C@@H](C)O[C@@H](C)C4)c3nc2Cl)C[C@H](C)O1 yields log10 IC50 of 1.38

Query Clc1nc2c(NCCN3CCOCC3)nc(NCc3ccccc3)nc2nc1NCCN1CCOCC1 yields log10 IC50 of 1.79

Query CCOc1nc2c(NCCN3CCCC3)nc(-c3ccccc3)nc2nc1N1CCN(C)CC1 yields log10 IC50 of 1.81

Query COCCN1CCN(c2nc(NCCN3CCOCC3)c3nc(Cl)c(NCCN4CCOCC4)nc3n2)CC1 yields log10 IC50 of 1.45
